- Tested on: HCC-44
- assay.overview: relative viability (nuclei count vs DMSO), 5 days (fraction); higher = more cells survive
- setup.conditions: first compound 0.006325 µM
recorded.endpoint: relative viability
Numbers only.

[Q] Fill in the blank: the reported relative viability of CC(=O)O[C@@]12CO[C@@H]1C[C@H](O)[C@@]1(C)C(=O)[C@H](O)C3=C(C)[C@@H](OC(=O)[C@H](O)[C@@H](NC(=O)OC(C)(C)C)c4ccccc4)C[C@@](O)([C@@H](OC(=O)c4ccccc4)[C@H]21)C3(C)C [Docetaxel] + CC(=O)c1c(C)c2cnc(Nc3ccc(N4CCNCC4)cn3)nc2n(C2CCCC2)c1=O [Palbociclib] (partner 0.5 µM) is ____.
[A] 0.691

###

Assign relative viability to each entry below.
- Tested on: NCI-H2085
- assay.overview: relative viability (nuclei count vs DMSO), 5 days (fraction); higher = more cells survive
- setup.conditions: first compound 0.5 µM

molecule | relative viability
COc1cc2nccc(Oc3ccc(NC(=O)Nc4cc(C)on4)c(Cl)c3)c2cc1OC [Tivozanib] + CS(=O)(=O)CCNCc1ccc(-c2ccc3ncnc(Nc4ccc(OCc5cccc(F)c5)c(Cl)c4)c3c2)o1 [Lapatinib] (partner 2 µM) | 0.627

// next item, relative viability requested
[Q] Fill in the blank: the reported relative viability of COc1cc2nccc(Oc3ccc(NC(=O)Nc4cc(C)on4)c(Cl)c3)c2cc1OC [Tivozanib] + CC(C)C[C@H](NC(=O)[C@H](Cc1ccccc1)NC(=O)c1cnccn1)B(O)O [Bortezomib] (partner 0.002 µM) is ____.
[A] 0.846

###

- Test system: 201T
- assay.overview: relative viability (nuclei count vs DMSO), 5 days (fraction); higher = more cells survive
- setup.conditions: first compound 2.53 µM
Note to self: use rule met only for relative viability readings below 0.9; a reading exactly at 0.9 still gets rule not met.

Solved cases (7 shown):
compound | cat
O=c1[nH]c2ccccc2n1C1CCN(CCCC(c2ccc(F)cc2)c2ccc(F)cc2)CC1 [Pimozide] + O=C(CCCCCCC(=O)Nc1ccccc1)NO [Vorinostat] (partner 1 µM) | rule not met
Cc1cnc(-c2cnc(NCCNc3ccc(C#N)cn3)nc2-c2ccc(Cl)cc2Cl)[nH]1 + CCNC(=O)c1noc(-c2cc(C(C)C)c(O)cc2O)c1-c1ccc(CN2CCOCC2)cc1 [Luminespib] (partner 0.01 µM) | rule not met
O=c1[nH]c2ccccc2n1C1CCN(CCCC(c2ccc(F)cc2)c2ccc(F)cc2)CC1 [Pimozide] + CC1(C)CCC(c2ccc(Cl)cc2)=C(CN2CCN(c3ccc(C(=O)NS(=O)(=O)c4ccc(N[C@H](CCN5CCOCC5)CSc5ccccc5)c(S(=O)(=O)C(F)(F)F)c4)cc3)CC2)C1 [Navitoclax] (partner 0.5 µM) | rule not met
Cc1cnc(-c2cnc(NCCNc3ccc(C#N)cn3)nc2-c2ccc(Cl)cc2Cl)[nH]1 + Nc1ncn([C@H]2C[C@H](O)[C@@H](CO)O2)c(=O)n1 [Decitabine] (partner 2 µM) | rule met
O=c1[nH]c2ccccc2n1C1CCN(CCCC(c2ccc(F)cc2)c2ccc(F)cc2)CC1 [Pimozide] + CC(C)C[C@H](NC(=O)[C@H](Cc1ccccc1)NC(=O)c1cnccn1)B(O)O [Bortezomib] (partner 0.002 µM) | rule not met
O=c1[nH]c2ccccc2n1C1CCN(CCCC(c2ccc(F)cc2)c2ccc(F)cc2)CC1 [Pimozide] + Cc1cc(Nc2cc(N3CCN(C)CC3)nc(Sc3ccc(NC(=O)C4CC4)cc3)n2)n[nH]1 [Tozasertib] (partner 0.1 µM) | rule met
Cc1cnc(-c2cnc(NCCNc3ccc(C#N)cn3)nc2-c2ccc(Cl)cc2Cl)[nH]1 + CC(C)C[C@H](NC(=O)[C@H](Cc1ccccc1)NC(=O)c1cnccn1)B(O)O [Bortezomib] (partner 0.002 µM) | rule not met

[Q] Take the compound Cc1cnc(-c2cnc(NCCNc3ccc(C#N)cn3)nc2-c2ccc(Cl)cc2Cl)[nH]1 + NC(=O)Nc1cc(-c2cccc(F)c2)sc1C(=O)N[C@H]1CCCNC1 [AZD7762] (partner 0.2 µM) and say whether its relative viability is less than 0.9.
[A] rule met

###

Assign relative viability to each entry below.
- System: HCC-15
- assay.overview: relative viability (nuclei count vs DMSO), 5 days (fraction); higher = more cells survive
- setup.conditions: first compound 0.005 µM
Numbers only.

molecule | recorded.endpoint | result
Nc1ccn([C@@H]2O[C@H](CO)[C@@H](O)[C@@H]2O)c(=O)n1 [Cytarabine] + Cc1nc(Nc2ncc(C(=O)Nc3c(C)cccc3Cl)s2)cc(N2CCN(CCO)CC2)n1 [Dasatinib] (partner 0.075 µM) | relative viability | 0.559
COc1cc2nccc(Oc3ccc(NC(=O)Nc4cc(C)on4)c(Cl)c3)c2cc1OC [Tivozanib] + Nc1ncn([C@H]2C[C@H](O)[C@@H](CO)O2)c(=O)n1 [Decitabine] (partner 2 µM) | relative viability | 0.613
COc1cc2nccc(Oc3ccc(NC(=O)Nc4cc(C)on4)c(Cl)c3)c2cc1OC [Tivozanib] + C[C@]1(O)C[C@@H](c2nc(-c3ccc4ccc(-c5ccccc5)nc4c3)c3c(N)nccn32)C1 [Linsitinib] (partner 1 µM) | relative viability | 0.9

// next item, relative viability requested
[Q] Fill in the blank: the reported relative viability of COc1cc2nccc(Oc3ccc(NC(=O)Nc4cc(C)on4)c(Cl)c3)c2cc1OC [Tivozanib] + CC1(C)CCC(c2ccc(Cl)cc2)=C(CN2CCN(c3ccc(C(=O)NS(=O)(=O)c4ccc(N[C@H](CCN5CCOCC5)CSc5ccccc5)c(S(=O)(=O)C(F)(F)F)c4)cc3)CC2)C1 [Navitoclax] (partner 0.5 µM) is ____.
[A] 0.719

###

- Test system: PC-3 [JPC-3]
- assay.overview: relative viability (nuclei count vs DMSO), 5 days (fraction); higher = more cells survive
- setup.conditions: first compound 500 µM
recorded.endpoint: relative viability

Example entries begin here.
molecule | result
O=C(O)CCCCC(CCSCc1ccccc1)SCc1ccccc1 (configuration not stated) [CPI-613] + CC(=O)c1c(C)c2cnc(Nc3ccc(N4CCNCC4)cn3)nc2n(C2CCCC2)c1=O [Palbociclib] (partner 0.5 µM) | 0.263
O=C(O)CCCCC(CCSCc1ccccc1)SCc1ccccc1 (configuration not stated) [CPI-613] + CCNC(=O)c1noc(-c2cc(C(C)C)c(O)cc2O)c1-c1ccc(CN2CCOCC2)cc1 [Luminespib] (partner 0.01 µM) | 0.48
O=C(O)CCCCC(CCSCc1ccccc1)SCc1ccccc1 (configuration not stated) [CPI-613] + Cc1nc(Nc2ncc(C(=O)Nc3c(C)cccc3Cl)s2)cc(N2CCN(CCO)CC2)n1 [Dasatinib] (partner 0.075 µM) | 0.348
O=C(O)CCCCC(CCSCc1ccccc1)SCc1ccccc1 (configuration not stated) [CPI-613] + NC(=O)Nc1cc(-c2cccc(F)c2)sc1C(=O)N[C@H]1CCCNC1 [AZD7762] (partner 0.2 µM) | 0.114

Working through the 3 molecules below one at a time, give relative viability for each.
1. O=C(O)CCCCC(CCSCc1ccccc1)SCc1ccccc1 (configuration not stated) [CPI-613] + C[C@]1(O)C[C@@H](c2nc(-c3ccc4ccc(-c5ccccc5)nc4c3)c3c(N)nccn32)C1 [Linsitinib] (partner 1 µM)
2. O=C(O)CCCCC(CCSCc1ccccc1)SCc1ccccc1 (configuration not stated) [CPI-613] + N=C(N)NC(=N)NCCc1ccccc1 [Phenformin] (partner 250 µM)
3. O=C(O)CCCCC(CCSCc1ccccc1)SCc1ccccc1 (configuration not stated) [CPI-613] + Nc1ncn([C@H]2C[C@H](O)[C@@H](CO)O2)c(=O)n1 [Decitabine] (partner 2 µM)

[A]
1: 0.64; 2: 0.0769; 3: 0.622

###

Assign relative viability to each entry below.
- System: PC-14
- assay.overview: relative viability (nuclei count vs DMSO), 5 days (fraction); higher = more cells survive
- setup.conditions: first compound 0.02 µM
One number for each entry.

molecule | relative viability
CC(=O)O[C@@]12CO[C@@H]1C[C@H](O)[C@@]1(C)C(=O)[C@H](O)C3=C(C)[C@@H](OC(=O)[C@H](O)[C@@H](NC(=O)OC(C)(C)C)c4ccccc4)C[C@@](O)([C@@H](OC(=O)c4ccccc4)[C@H]21)C3(C)C [Docetaxel] + N=C(N)NC(=N)NCCc1ccccc1 [Phenformin] (partner 250 µM) | 0.0382
CC(=O)O[C@@]12CO[C@@H]1C[C@H](O)[C@@]1(C)C(=O)[C@H](O)C3=C(C)[C@@H](OC(=O)[C@H](O)[C@@H](NC(=O)OC(C)(C)C)c4ccccc4)C[C@@](O)([C@@H](OC(=O)c4ccccc4)[C@H]21)C3(C)C [Docetaxel] + Nc1ncn([C@H]2C[C@H](O)[C@@H](CO)O2)c(=O)n1 [Decitabine] (partner 2 µM) | 0.0313

[Q] Fill in the blank: the reported relative viability of CC(=O)O[C@@]12CO[C@@H]1C[C@H](O)[C@@]1(C)C(=O)[C@H](O)C3=C(C)[C@@H](OC(=O)[C@H](O)[C@@H](NC(=O)OC(C)(C)C)c4ccccc4)C[C@@](O)([C@@H](OC(=O)c4ccccc4)[C@H]21)C3(C)C [Docetaxel] + O=C(c1cc(Cc2n[nH]c(=O)c3ccccc23)ccc1F)N1CCN(C(=O)C2CC2)CC1 [Olaparib] (partner 8 µM) is ____.
[A] 0.0274
